Source of measurements: ChEMBL document CHEMBL5375989

Tested on: A549
Assay: cells
Settings: Homo sapiens, A549, 48 h
Description: Antiproliferative activity against human A549 cells assessed as inhibition of cell growth measured after 48 hrs by MTT assay
Result type: IC50 (µM)

CC(C)n1c[n+](C(C)C)c2c1C(=O)c1ccccc1C2=O | 0.63
CC(C)=CCn1c[n+](C)c2c1C(=O)c1cc3ccccc3cc1C2=O | 1.81
CC(C)CCn1c[n+](C)c2c1C(=O)c1cc3ccccc3cc1C2=O | 9.3
Cn1c[n+](C)c2c1C(=O)c1cc3ccccc3cc1C2=O.[Br-] | 0.01

(1) Cn1c2c([n+](C)c1C1CC1)C(=O)c1ccccc1C2=O
(2) CC1=C(C)C(=O)c2c(n(C)c[n+]2C)C1=O
Lab notebook, comparison: 1 versus 2 , higher IC50 goes to which? Please indicate the selected item by its label.
2
(2: 32.1 µM, 1: 0.08 µM)

* * *

Tested on: HepG2
Assay: Antiproliferative activity against human HepG2 cells assessed as inhibition of cell growth measured after 48 hrs by MTT assay
Assay type: functional, cell-based
Conditions: Homo sapiens, HepG2, 48 h
Result type: IC50 (µM)
Give your result in µM as a bare value.

Cn1c[n+](C)c2c1C(=O)c1cc3ccccc3cc1C2=O.[Br-] | 0.36

Next compound, IC50 to be filled in.
COCC[n+]1c2c(n(Cc3cnccn3)c1C)C(=O)c1ccccc1C2=O.[Br-] [SEPANTRONIUM BROMIDE] has a reported IC50 of 3.72

* * *

Test: Antiproliferative activity against human HUVEC cells assessed as inhibition of cell growth measured after 48 hrs by MTT assay
Format: toxicity, cell-based
Details: human, HUVEC cells
Result type: IC50 at 48 h (µM)
Reply numerically in µM, unit not repeated.

COCCn1c2c([n+](Cc3cnccn3)c1C)C(=O)c1ccccc1C2=O.[Br-] [SEPANTRONIUM BROMIDE] | 0.92

# ---- query compound ----
According to the records, this compound Cn1c[n+](C)c2c1C(=O)c1cc3ccccc3cc1C2=O.[Br-] displays IC50 at 48 h of 10.5

* * *

Assay: Antiproliferative activity against mouse NIH3T3 cells assessed as inhibition of cell growth measured after 48 hrs by MTT assay
Format: toxicity, cell-based
Settings: mouse, NIH3T3 cells
Result type: IC50 at 48 h (µM)
Your answer should be a plain number; it is taken to be in µM.

Cn1c[n+](C)c2c1C(=O)c1cc3ccccc3cc1C2=O.[Br-] | 14.2

IC50 at 48 h reading for COCCn1c2c([n+](Cc3cnccn3)c1C)C(=O)c1ccccc1C2=O.[Br-] [SEPANTRONIUM BROMIDE] : 13.6

* * *

Tested on: A549
Experiment: cells
Settings: Homo sapiens, A549, 48 h
Result type: IC50 (nM)

(1) C[n+]1cn(Cc2ccccc2F)c2c1C(=O)c1cc3ccccc3cc1C2=O
(2) CCC(C)Cn1c[n+](C)c2c1C(=O)c1cc3ccccc3cc1C2=O (centres undefined)
(3) Cn1c2c([n+](C)c1-c1ccco1)C(=O)c1cc3ccccc3cc1C2=O
Provide the items ranked by increasing IC50. Labels, requested order.
3, 1, 2
(3: 90 nM, 1: 380 nM, 2: 8400 nM)

(P) Cc1n(C)c2c([n+]1C)C(=O)c1cc3ccccc3cc1C2=O
(Q) Cn1c2c([n+](C)c1-c1ccco1)C(=O)c1ccccc1C2=O
Would you let me know which has the greater IC50 value, P or Q ? Use the label to indicate which entry you chose.
Q

* * *

Experiment: Antiproliferative activity against mouse L929 cells assessed as inhibition of cell growth measured after 48 hrs by MTT assay
Type: toxicity, cell-based
Conditions: mouse, L929 cells
This section presents molecules with their documented IC50 at 48 h values.
Give the value in µM but do not write µM after it.

Worked set:
Cn1c2c([n+](C)c1-c1ccccc1F)C(=O)c1ccccc1C2=O | 9.2
COCCn1c2c([n+](C)c1C)C(=O)c1cc3ccccc3cc1C2=O | 11
Cn1c[n+](C)c2c(O)c3c(c(O)c21)C1C=CC3C1 (stereo unspecified) | 86

# IC50 at 48 h (molecule: Cn1c2c([n+](C)c1C1CC1)C(=O)c1cc3ccccc3cc1C2=O ) is 15.4

For record C[n+]1cn(Cc2cccc(F)c2)c2c1C(=O)c1cc3ccccc3cc1C2=O the listed IC50 at 48 h is 22.8

The recorded IC50 at 48 h for Cn1c2c([n+](C)c1-c1ccco1)C(=O)c1cc3ccccc3cc1C2=O is 8.9

// recorded IC50 at 48 h for CCCCn1c[n+](CCCC)c2c1C(=O)c1ccccc1C2=O : 6

The reported IC50 at 48 h of the molecule Cn1c[n+](C)c2c1C(=O)c1cccc([N+](=O)[O-])c1C2=O was 17.5

Form field IC50 at 48 h, entry Cn1c2c([n+](C)c1C1CC1)C(=O)c1ccccc1C2=O : 6.2

Record summary for CCc1n(C)c2c([n+]1C)C(=O)c1ccccc1C2=O : reported IC50 at 48 h = 5.6

* * *

Target: Interleukin enhancer-binding factor 3 (Homo sapiens, UniProt Q12906)
Sequence (Q12906 whole entry): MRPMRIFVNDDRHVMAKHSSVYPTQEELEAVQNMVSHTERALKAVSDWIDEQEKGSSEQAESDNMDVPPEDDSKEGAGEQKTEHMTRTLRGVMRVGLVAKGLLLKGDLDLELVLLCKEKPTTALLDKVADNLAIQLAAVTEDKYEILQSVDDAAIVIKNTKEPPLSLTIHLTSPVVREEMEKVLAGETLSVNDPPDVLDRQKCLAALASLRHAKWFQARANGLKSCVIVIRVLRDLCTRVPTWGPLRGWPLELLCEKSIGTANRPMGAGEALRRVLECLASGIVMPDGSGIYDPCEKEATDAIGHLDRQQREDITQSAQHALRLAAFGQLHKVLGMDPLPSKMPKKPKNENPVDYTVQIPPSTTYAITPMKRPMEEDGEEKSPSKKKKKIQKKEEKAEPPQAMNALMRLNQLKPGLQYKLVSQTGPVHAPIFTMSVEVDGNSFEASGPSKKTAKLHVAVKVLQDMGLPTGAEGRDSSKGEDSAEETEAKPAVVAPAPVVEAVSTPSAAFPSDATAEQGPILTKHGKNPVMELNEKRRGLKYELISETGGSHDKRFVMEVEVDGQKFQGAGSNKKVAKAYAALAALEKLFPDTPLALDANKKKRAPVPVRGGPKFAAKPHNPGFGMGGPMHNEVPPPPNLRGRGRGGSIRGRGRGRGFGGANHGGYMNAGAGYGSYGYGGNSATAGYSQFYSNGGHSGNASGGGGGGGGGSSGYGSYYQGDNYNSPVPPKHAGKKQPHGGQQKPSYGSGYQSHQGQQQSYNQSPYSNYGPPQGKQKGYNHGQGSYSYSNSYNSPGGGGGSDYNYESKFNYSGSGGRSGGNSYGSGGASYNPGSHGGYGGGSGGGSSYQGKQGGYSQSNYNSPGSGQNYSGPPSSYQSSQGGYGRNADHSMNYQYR
Result type: pKd
// field semantics: pKd = negative decimal log of concentration (mol/L)

Cn1c[n+](C)c2c1C(=O)c1cc3ccccc3cc1C2=O.[I-] | 6.79

Proceeding to the next compound to report its pKd.
# lookup: COCCn1c2c([n+](Cc3cnccn3)c1C)C(=O)c1ccccc1C2=O.[Br-] [SEPANTRONIUM BROMIDE] on Interleukin enhancer-binding factor 3 (Homo sapiens, UniProt Q12906), pKd = 6.24

* * *

The entries below are paired with their reported IC50.
Tested on: L929
Assay: Antiproliferative activity against mouse L929 cells assessed as inhibition of cell growth measured after 48 hrs by MTT assay
Assay type: toxicity, cell-based
Conditions: l929
Your answer is read as nM, so omit the unit and give the number.

Below, 4 compounds whose answers are already recorded.
Cn1c[n+](C)c2c1C(=O)c1ccccc1C2=O.F[P-](F)(F)(F)(F)F | 1800
CS(=O)(=O)[O-].Cn1c[n+](C)c2c1C(=O)c1ccccc1C2=O | 700
Cn1c[n+](C)c2c1C(=O)c1ccccc1C2=O.O=S(=O)([O-])C(F)(F)F | 2000
Cc1ccc(S(=O)(=O)[O-])cc1.Cn1c[n+](C)c2c1C(=O)c1ccccc1C2=O | 540

Please examine the following record next.
The compound Cn1c[n+](C)c2c1C(=O)c1ccccc1C2=O.[I-] showed IC50 equal to 3520

* * *

Tested on: HUVEC
Experiment: Antiproliferative activity against human HUVEC cells assessed as inhibition of cell growth measured after 48 hrs by MTT assay
Format: toxicity, cell-based
Conditions: huvec
Result type: IC50 (µM)
The reply should be a number in µM, with the unit left off.

Form: item Cn1c[n+](C)c2c1C(=O)c1cc3ccccc3cc1C2=O.[I-] ; test system HUVEC; IC50: 6.66

* * *

System: NIH3T3
Assay: Antiproliferative activity against mouse NIH3T3 cells assessed as inhibition of cell growth measured after 48 hrs by MTT assay
Type: toxicity, cell-based
Conditions: nih3t3
Result type: pIC50
Quick note: pIC50 values are minus log10 of concentrations in mol/L.

Lab book: pIC50 of Cn1c[n+](C)c2c1C(=O)c1cc3ccccc3cc1C2=O.[I-] noted as 4.85
